System: HCT-116 human colon cancer cell line
experimentSummary: Cell viability testing of HCT-116 cells (Cell Counting Kit-8, WST-8 reagent)
Assay type: cell-based
conditionContext: Homo sapiens, HCT-116, 72 h, regorafenib alone, 72 h treatment, WST-8, read-out: IC50 of regorafenib on HCT-116 cells
measurementLabel: pIC50
Give only the number. pIC50 is defined as minus log10 of concentration in molar units.

For the molecule CNC(=O)c1cc(Oc2ccc(NC(=O)Nc3ccc(Cl)c(C(F)(F)F)c3)c(F)c2)ccn1 [regorafenib] , give its measured pIC50 value.
5.66
